# Test system: CHL cells
# Method Description: Evaluation of cell toxicity (CCK8 cell viability)
# Type: cell-based
# Cond: CHL, 48 h
Property Name: IC50
Number plus unit, in that order.

Please give measured IC50 of the following entry: CCCCCCCCC(CCCCCC)CNC(=O)NCCCCCCN(CCCCCO)CCCCCCNC(=O)NCC(CCCCCC)CCCCCCCC (stereo not shown)
152 µg/mL

Please give measured IC50 of the following entry: CCCCCCCCC(CCCCCC)CNC(=O)NCCCCCCCCCN(CCCCO)CCCCCCCCCNC(=O)NCC(CCCCCC)CCCCCCCC (stereo not shown)
195 µg/mL

Please give measured IC50 of the following entry: CCCCCCCCC(CCCCCC)CNC(=O)NCCCCCCCCCCCCN(CCCCO)CCCCCCNC(=O)NCC(CCCCCC)CCCCCCCC (stereo not shown)
147 µg/mL

Please give measured IC50 of the following entry: `CCCCCCCCC(CCCCCCCC)CNC(=O)NCCCCCCN(CCCCO)CCCCCCNC(=O)NCC(CCCCCCCC)CCCCCCCC`
174 µg/mL
